- Test system: HCI-016 (organoid from a triple-negative breast cancer xenograft)
- test_name: CTG-3D luminescence at 96 h relative to day-0 seeding control (ratio to day 0); higher = more growth / less cytotoxicity; PDxO 3D drug screen (set 2), 96 h, CTG-3D normalised to day-0 seeding control.
- details: 10 µM; days in culture: 305
Binary call on CTG-3D luminescence at 96 h: TRUE from 0.4 upward, FALSE beneath that.

Is CTG-3D luminescence at 96 h for "CS(=O)(=O)CCNCc1ccc(-c2ccc3ncnc(Nc4ccc(OCc5cccc(F)c5)c(Cl)c4)c3c2)o1" at or above 0.4?
FALSE

Is CTG-3D luminescence at 96 h for "CC(=O)c1c(C)c2cnc(Nc3ccc(N4CCNCC4)cn3)nc2n(C2CCCC2)c1=O" at or above 0.4?
TRUE

Is CTG-3D luminescence at 96 h for "Nc1cc(C(F)(F)F)c(-c2cc(N3CCOCC3)nc(N3CCOCC3)n2)cn1" at or above 0.4?
TRUE

Is CTG-3D luminescence at 96 h for "C[C@@H](Nc1cc(F)cc(F)c1)c1cc(C(=O)N(C)C)cc2c(=O)cc(N3CCOCC3)oc12" at or above 0.4?
TRUE

Is CTG-3D luminescence at 96 h for "CO[C@H]1C[C@@H]2CC[C@@H](C)[C@@](O)(O2)C(=O)C(=O)N2CCCC[C@H]2C(=O)O[C@H]([C@H](C)C[C@@H]2CC[C@@H](OCCO)[C@H](OC)C2)CC(=O)[C@H](C)/C=C(\C)[C@@H](O)[C@@H](OC)C(=O)[C@H](C)C[C@H](C)/C=C/C=C/C=C/1C" at or above 0.4?
TRUE

* * *

- Test system: HCI-010 (organoid from a breast cancer xenograft)
- test_name: CTG-3D luminescence at 96 h relative to day-0 seeding control (ratio to day 0); higher = more growth / less cytotoxicity; PDxO 3D drug screen (set 2), 96 h, CTG-3D normalised to day-0 seeding control.
- details: 0.1 µM; days in culture: 164
Kindly supply the reported CTG-3D luminescence at 96 h values for the records listed here.
// no unit, no text: just the number

Identify measured CTG-3D luminescence at 96 h corresponding to "Cc1c(CN2CCN(C(=O)[C@H](C)O)CC2)sc2c(N3CCOCC3)nc(-c3cnc(N)nc3)nc12"
1.27

Identify measured CTG-3D luminescence at 96 h corresponding to "CO[C@H]1C[C@@H]2CC[C@@H](C)[C@@](O)(O2)C(=O)C(=O)N2CCCC[C@H]2C(=O)O[C@H]([C@H](C)C[C@@H]2CC[C@@H](O)[C@H](OC)C2)CC(=O)[C@H](C)/C=C(\C)[C@@H](O)[C@@H](OC)C(=O)[C@H](C)C[C@H](C)/C=C/C=C/C=C/1C"
0.996

Identify measured CTG-3D luminescence at 96 h corresponding to "Nc1cc(C(F)(F)F)c(-c2cc(N3CCOCC3)nc(N3CCOCC3)n2)cn1"
1.65

Identify measured CTG-3D luminescence at 96 h corresponding to "CO[C@H]1C[C@@H]2CC[C@@H](C)[C@@](O)(O2)C(=O)C(=O)N2CCCC[C@H]2C(=O)O[C@H]([C@H](C)C[C@@H]2CC[C@@H](OCCO)[C@H](OC)C2)CC(=O)[C@H](C)/C=C(\C)[C@@H](O)[C@@H](OC)C(=O)[C@H](C)C[C@H](C)/C=C/C=C/C=C/1C"
0.906

Where do these numbers come from? They come from the supplement of paper PMC8882468.
